test system: Escherichia coli TOP10; assay: shrunken log2 fold change of peptide-encoding DNA abundance (4.5 h post-induction vs induction); higher = less antimicrobial activity (less host growth inhibition); conditions: time post-induction: 4.5 h; library: site-saturation at positions 5, 18, 19, 20;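 note: peptides expressed intracellularly from a pBAD plasmid library in pooled LB shake-flask culture, induced with 0.3% L-arabinose, DNA abundance read by NGS, three biological replicates, DESeq2 with apeglm shrinkage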
Class field: derived from shrunken log2 fold change; ranges bottom range: < -0.3; center range: ≥ -0.3 and < -0.009; top range: ≥ -0.009

Categorize the following entry: RRIRNRPPRLPRPRPRPKATPRP
center range

Categorize the following entry: RRIRCRPPRLPRPRPRPSFHPRP
bottom range

Categorize the following entry: RRIRYRPPRLPRPRPRPNAGPRP
bottom range

Categorize the following entry: RRIRNRPPRLPRPRPRPVRKPRP
top range

Categorize the following entry: RRIRTRPPRLPRPRPRPYWHPRP
bottom range

Categorize the following entry: RRIRVRPPRLPRPRPRPSMFPRP
center range

Categorize the following entry: RRIRTRPPRLPRPRPRPSYIPRP
bottom range

Categorize the following entry: RRIRTRPPRLPRPRPRPGGCPRP
top range

Categorize the following entry: RRIRNRPPRLPRPRPRPGVLPRP
top range

Categorize the following entry: RRIRHRPPRLPRPRPRPRDCPRP
center range

Categorize the following entry: RRIRERPPRLPRPRPRPQASPRP
bottom range

Categorize the following entry: RRIRRRPPRLPRPRPRPCWTPRP
center range

Categorize the following entry: RRIRNRPPRLPRPRPRPLMDPRP
top range

Categorize the following entry: RRIRVRPPRLPRPRPRPSVIPRP
center range

Recorded values, source the supplement of paper PMC9112550.
